test target: T1, human PRLR on cells (human, UniProt P16471 25-622)
T1 sequence: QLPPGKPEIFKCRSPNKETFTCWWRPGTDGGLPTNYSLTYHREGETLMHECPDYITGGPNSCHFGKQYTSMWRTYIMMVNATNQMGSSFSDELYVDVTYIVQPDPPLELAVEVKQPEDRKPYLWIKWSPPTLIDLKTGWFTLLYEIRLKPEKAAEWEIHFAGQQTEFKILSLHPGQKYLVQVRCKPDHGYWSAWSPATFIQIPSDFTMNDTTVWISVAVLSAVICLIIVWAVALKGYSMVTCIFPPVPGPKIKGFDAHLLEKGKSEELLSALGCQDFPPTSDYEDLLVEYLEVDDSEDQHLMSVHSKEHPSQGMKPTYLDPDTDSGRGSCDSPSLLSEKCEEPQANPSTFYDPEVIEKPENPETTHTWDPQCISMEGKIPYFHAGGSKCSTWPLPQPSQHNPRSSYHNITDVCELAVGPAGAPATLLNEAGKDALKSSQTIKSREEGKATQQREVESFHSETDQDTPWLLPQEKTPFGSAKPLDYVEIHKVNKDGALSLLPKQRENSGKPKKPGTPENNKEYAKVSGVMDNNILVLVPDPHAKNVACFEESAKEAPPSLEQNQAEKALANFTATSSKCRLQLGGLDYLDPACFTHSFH
test method notes: cell-based or functional assay
Output TRUE for Baf3-hPRLR proliferation IC50 not less than 0.5 µg/mL; output FALSE otherwise.

*Q* Test whether the binder Ab45 (antibody, human IgG1, kappa, V domains shown, humanized from Ab8; G1; also called Ab3 HC.1 and Ab3 LC.1a) VH: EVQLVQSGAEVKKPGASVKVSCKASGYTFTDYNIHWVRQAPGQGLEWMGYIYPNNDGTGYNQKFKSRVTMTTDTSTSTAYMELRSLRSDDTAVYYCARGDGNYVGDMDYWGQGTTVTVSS VL: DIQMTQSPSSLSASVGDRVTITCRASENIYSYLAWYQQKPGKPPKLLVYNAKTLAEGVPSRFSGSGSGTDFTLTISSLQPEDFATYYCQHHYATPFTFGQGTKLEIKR records Baf3-hPRLR proliferation IC50 of 0.5 µg/mL or higher.
*A* FALSE

*Q* Next up: Ab22 (antibody, human IgG1, kappa, V domains shown) VH: EVQLVQSGAEVKKPGSSVKVSCKASGGTFTTYWMHWVRQAPGQGLEWIGEIDPSDSYSNYAQKFQGRVTITVDKSTSTAYMELSSLRSEDTAVYYCARNGGLGPAWFSYWGQGTLVTVSS VL: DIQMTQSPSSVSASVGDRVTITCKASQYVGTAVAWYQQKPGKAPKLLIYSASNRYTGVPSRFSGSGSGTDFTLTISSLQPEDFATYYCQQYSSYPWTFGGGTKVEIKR
*A* TRUE

*Q* Record: Ab7 (antibody, V domains shown, murine monoclonal, isotype G1; also called murine Ab7) VH: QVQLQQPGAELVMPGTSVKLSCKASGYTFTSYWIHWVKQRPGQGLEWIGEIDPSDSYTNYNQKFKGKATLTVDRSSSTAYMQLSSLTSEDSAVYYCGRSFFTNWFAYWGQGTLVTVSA VL: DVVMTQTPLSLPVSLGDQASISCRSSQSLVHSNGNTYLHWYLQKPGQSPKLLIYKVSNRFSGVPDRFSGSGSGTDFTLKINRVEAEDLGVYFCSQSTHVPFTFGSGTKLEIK
*A* FALSE

*Q* Another binder to check: Ab46 (antibody, human IgG1, kappa, V domains shown, humanized from Ab8; G1; also called Ab3 HC.1 and Ab3 LC.1b) VH: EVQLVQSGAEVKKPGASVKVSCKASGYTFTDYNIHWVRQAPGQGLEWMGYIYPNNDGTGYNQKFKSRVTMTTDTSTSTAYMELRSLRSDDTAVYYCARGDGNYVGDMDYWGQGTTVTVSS VL: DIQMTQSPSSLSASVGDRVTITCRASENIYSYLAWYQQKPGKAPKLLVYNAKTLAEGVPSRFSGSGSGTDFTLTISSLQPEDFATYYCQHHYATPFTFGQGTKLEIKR
*A* FALSE

*Q* Try this binder next: Ab44 (antibody, human IgG1, kappa, V domains shown, humanized from Ab8; G1; also called Ab3 HC.1 and Ab3 LC.1) VH: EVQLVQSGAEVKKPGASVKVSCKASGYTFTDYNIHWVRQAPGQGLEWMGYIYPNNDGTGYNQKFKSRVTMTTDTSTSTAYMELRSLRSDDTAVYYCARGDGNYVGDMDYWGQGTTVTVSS VL: DIQMTQSPSSLSASVGDRVTITCRASENIYSYLAWYQQKPGKAPKLLIYNAKTLAEGVPSRFSGSGSGTDFTLTISSLQPEDFATYYCQHHYATPFTFGQGTKLEIKR
*A* FALSE

*Q* And what about the binder Ab42 (antibody, human IgG1, kappa, V domains shown) VH: EVQLVQSGAEVKKPGSSVKVSCKASGGTFTSYWIHWVRQAPGQGLEWIGEIDPSDSYTNYAQKFQGRVTITVDKSTSTAYMELSSLRSEDTAVYYCARSFFTNWFAYWGQGTLVTVSS VL: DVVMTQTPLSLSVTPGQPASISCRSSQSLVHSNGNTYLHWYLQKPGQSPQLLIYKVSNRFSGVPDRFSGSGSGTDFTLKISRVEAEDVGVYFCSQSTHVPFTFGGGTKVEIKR ?
*A* TRUE

*Q* Repeat with Ab5 (antibody, V domains shown, murine monoclonal, isotype G2a; also called murine Ab5) VH: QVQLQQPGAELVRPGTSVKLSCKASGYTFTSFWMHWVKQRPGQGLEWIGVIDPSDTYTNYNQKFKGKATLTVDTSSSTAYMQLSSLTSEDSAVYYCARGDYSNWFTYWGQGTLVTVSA VL: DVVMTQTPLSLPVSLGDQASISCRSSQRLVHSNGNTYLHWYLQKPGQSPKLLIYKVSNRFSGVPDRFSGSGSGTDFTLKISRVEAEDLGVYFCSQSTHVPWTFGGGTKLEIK
*A* FALSE

*Q* Would you mind doing Ab10 (antibody, V domains shown, murine monoclonal, isotype G2a; also called murine Ab10) VH: EVQLHQSGPELVKPGASVKISCKASGYTFTDYNMHWMKQSHGKSLEWIGYFYPYNGGTGYNQEFKNKATLTVDISSSTAYMELRRLTSEDSAVYYCARGGWGIYYAMDYWGQGTSVTVSS VL: DIQMTQSPASLSASVGETVTITCRASENIYSYLTWYQQKQGKSPQLLVYNAKTLAEGVPSRFSGSGSGTQFSLKINSLQPEDFGSYHCQHHSVTPLTFGAGTKLELK as well?
*A* TRUE
